This collection of values is drawn from patent US5861520A.

tested on: β-galactocerebrosidase; assay: β-galactocerebrosidase inhibition, 4-methyl-umbelliferyl substrate; type: biochemical; conditions: 40 μM; mouse brain microsome; 4-methyl-umbelliferyl glucoside
PROPERTY NAME: 40 μM inhibition (%)

COMPOUND	SYSTEM NAME	PROPERTY NAME	UNIT ABBREVIATION	NUMBER
CCCCCCCCCCCCC/C=C\[C@@H](O)[C@H](CN[C@@H]1C=C(CO)[C@@H](O)[C@H](O)[C@H]1O)NC(=O)CCCCCCCCCCCCCCC	β-galactocerebrosidase	40 μM inhibition (%)	%	1
CCCCCCCCCCCCC/C=C/[C@@H](O)[C@H](CN[C@@H]1C=C(CO)[C@@H](O)[C@H](O)[C@H]1O)NC(=O)CCCCCCCCCCCCCCC	β-galactocerebrosidase	40 μM inhibition (%)	%	1
CCCCCCCCCCCCC/C=C\[C@@H](O)[C@H](CN[C@@H]1C=C(CO)[C@H](O)[C@H](O)[C@H]1O)NC(=O)CCCCCCCCCCCCCCC	β-galactocerebrosidase	40 μM inhibition (%)	%	92
CCCCCCCCCCCCC/C=C/[C@@H](O)[C@H](CN[C@@H]1C[C@H](CO)[C@@H](O)[C@H](O)[C@H]1O)NC(=O)CCCCCCCCCCCCCCC [Compound C-1, reference compound]	β-galactocerebrosidase	40 μM inhibition (%)	%	7
CCCCCCCCCCCCC/C=C/[C@@H](O)[C@H](CN[C@@H]1C=C(CO)[C@H](O)[C@H](O)[C@H]1O)NC(=O)CCCCCCCCCCCCCCC	β-galactocerebrosidase	40 μM inhibition (%)	%	95

(P) CCCCCCCCCCCCC/C=C/[C@@H](O)[C@H](CS[C@@H]1C[C@H](CO)[C@@H](O)[C@H](O)[C@H]1O)NC(=O)CCCCCCCCCCCCCCC [Compound C-6, reference compound]
(Q) CCCCCCCCCCCCC/C=C/[C@@H](O)[C@H](CO[C@@H]1C[C@H](CO)[C@@H](O)[C@H](O)[C@H]1O)NC(=O)CCCCCCCCCCCCCCC [Compound C-5, reference compound]
Parameter metric = 40 μM inhibition (%). Return the lower-valued option from P and Q . Field: selected label. Fill in the label of the entry you choose.
P
